- target or system: UniProtKB Q15858
- protocol notes: State-dependent inhibition of sodium currents, automated patch-clamp
- Assay type: cell-based
- measurement context: IC50, holding potential −110 mV, pulse 180 (3 min), mean ± SEM
pIC50: −log10 of the molar value.
endpoint: pIC50

[[record]]
sample_smiles = "CCCCCc1cc(O)c(C/C=C(\\C)CCC=C(C)C)c(O)c1"
result_number = 4.73


---

- target or system: human Nav1.7 channels (Homo sapiens)
- Sequence (Q15858 whole entry): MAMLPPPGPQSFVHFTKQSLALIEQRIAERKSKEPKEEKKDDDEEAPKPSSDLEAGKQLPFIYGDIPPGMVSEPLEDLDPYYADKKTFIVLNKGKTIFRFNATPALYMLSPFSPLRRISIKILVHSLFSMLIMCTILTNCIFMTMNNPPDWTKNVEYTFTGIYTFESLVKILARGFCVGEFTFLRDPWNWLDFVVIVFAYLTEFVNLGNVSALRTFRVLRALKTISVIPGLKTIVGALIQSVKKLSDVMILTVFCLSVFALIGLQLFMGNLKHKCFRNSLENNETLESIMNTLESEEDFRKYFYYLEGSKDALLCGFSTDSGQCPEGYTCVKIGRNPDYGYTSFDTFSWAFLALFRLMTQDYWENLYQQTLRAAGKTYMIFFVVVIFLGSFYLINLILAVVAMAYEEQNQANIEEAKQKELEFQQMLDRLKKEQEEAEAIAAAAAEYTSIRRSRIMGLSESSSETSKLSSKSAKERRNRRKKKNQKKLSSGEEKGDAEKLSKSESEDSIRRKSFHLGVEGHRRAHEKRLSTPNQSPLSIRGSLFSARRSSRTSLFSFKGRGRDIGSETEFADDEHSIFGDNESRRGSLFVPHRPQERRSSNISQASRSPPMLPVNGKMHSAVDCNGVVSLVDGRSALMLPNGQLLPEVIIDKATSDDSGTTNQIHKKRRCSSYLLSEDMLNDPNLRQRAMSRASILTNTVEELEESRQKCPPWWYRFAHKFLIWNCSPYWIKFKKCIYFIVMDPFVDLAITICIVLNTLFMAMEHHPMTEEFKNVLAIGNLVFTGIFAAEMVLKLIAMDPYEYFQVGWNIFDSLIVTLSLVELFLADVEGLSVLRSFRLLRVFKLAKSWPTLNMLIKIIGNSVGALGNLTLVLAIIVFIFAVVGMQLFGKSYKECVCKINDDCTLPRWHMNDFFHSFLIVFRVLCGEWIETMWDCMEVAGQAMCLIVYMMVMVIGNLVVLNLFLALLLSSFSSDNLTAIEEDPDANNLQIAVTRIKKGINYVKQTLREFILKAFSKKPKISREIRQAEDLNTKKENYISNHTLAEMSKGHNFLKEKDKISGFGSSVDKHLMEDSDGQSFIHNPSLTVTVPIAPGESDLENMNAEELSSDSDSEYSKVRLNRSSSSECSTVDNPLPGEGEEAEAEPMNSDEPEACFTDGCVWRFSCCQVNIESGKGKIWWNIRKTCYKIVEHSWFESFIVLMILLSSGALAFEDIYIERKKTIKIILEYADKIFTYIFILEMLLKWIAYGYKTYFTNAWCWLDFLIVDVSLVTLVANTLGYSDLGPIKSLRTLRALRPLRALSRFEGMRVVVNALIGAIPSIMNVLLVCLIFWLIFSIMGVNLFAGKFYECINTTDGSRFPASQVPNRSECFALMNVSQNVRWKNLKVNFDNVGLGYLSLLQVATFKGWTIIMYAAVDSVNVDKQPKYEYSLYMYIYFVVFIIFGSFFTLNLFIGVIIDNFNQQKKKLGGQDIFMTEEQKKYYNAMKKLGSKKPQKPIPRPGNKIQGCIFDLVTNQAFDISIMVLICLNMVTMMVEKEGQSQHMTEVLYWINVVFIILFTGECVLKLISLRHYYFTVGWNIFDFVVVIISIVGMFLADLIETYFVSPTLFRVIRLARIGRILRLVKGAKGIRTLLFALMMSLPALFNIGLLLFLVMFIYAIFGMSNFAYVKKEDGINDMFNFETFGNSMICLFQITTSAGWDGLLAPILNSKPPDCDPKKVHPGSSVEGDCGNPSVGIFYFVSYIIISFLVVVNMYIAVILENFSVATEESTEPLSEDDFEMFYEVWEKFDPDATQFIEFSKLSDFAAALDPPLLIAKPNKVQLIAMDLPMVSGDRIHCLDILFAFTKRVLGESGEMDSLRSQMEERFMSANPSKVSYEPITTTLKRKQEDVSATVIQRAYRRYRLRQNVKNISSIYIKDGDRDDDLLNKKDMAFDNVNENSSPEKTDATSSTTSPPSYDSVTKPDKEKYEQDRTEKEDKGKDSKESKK
- Sequence (Q07699 19-218 partner): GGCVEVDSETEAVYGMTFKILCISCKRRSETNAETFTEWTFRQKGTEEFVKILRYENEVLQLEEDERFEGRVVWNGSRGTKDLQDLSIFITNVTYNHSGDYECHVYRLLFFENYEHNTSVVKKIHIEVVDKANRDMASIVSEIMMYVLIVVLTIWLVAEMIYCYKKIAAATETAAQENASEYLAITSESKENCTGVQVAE
- protocol notes: State-dependent inhibition of sodium currents, automated patch-clamp
- Assay type: cell-based
- measurement context: IC50, holding potential −90 mV, pulse 180 (3 min), mean ± SEM
pIC50: −log10 of the molar value.
endpoint: pIC50

[[record]]
compound = "CCCCCc1cc(O)c(C/C=C(\\C)CCC=C(C)C)c(O)c1 [CBG, cannabigerol]"
target_or_system = "human Nav1.7 channels (Homo sapiens)"
result_number = 5.34


---

- target or system: UniProt:Q15858
- protocol notes: Activation / peak conductance protocol, automated patch-clamp
- Assay type: cell-based
pIC50: −log10 of the molar value.
endpoint: pIC50

[[record]]
compound = "CCCCCc1cc(O)c(C/C=C(\\C)CCC=C(C)C)c(O)c1 [CBG, cannabigerol]"
target_or_system = "UniProt:Q15858"
endpoint = "pIC50"
result = "~5.46"


---

- target or system: UniProt Q15858
- protocol notes: State-dependent inhibition of sodium currents, automated patch-clamp
- Type: cell-based
- measurement context: IC50, holding potential −100 mV, pulse 180 (3 min), mean ± SEM
pIC50: −log10 of the molar value.
endpoint: pIC50

[[record]]
compound = "CCCCCc1cc(O)c(C/C=C(\\C)CCC=C(C)C)c(O)c1 [CBG, cannabigerol]"
result_number = 5.03


meta.source: paper PMC13012276
